Below: a set of entries, each annotated with reported pIC50.
molecular target: FLAG-tagged Vanin-1 (AA 22-493, T26I) (Homo sapiens, UniProt O95497, T26I); construct: FLAG-tagged Vanin-1 (AA 22-493, T26I, produced internally); FLAG; experiment: Vanin-1 enzymatic assay (pantothenic acid formation, RapidFire mass spectrometry); settings: 0.1 nM FLAG-tagged Vanin-1, 3 μM D-pantethine, room temperature; geometric mean in case of multiple measurements; read-out: VNN-1 IC50
Sequence (O95497 22-493 T26I): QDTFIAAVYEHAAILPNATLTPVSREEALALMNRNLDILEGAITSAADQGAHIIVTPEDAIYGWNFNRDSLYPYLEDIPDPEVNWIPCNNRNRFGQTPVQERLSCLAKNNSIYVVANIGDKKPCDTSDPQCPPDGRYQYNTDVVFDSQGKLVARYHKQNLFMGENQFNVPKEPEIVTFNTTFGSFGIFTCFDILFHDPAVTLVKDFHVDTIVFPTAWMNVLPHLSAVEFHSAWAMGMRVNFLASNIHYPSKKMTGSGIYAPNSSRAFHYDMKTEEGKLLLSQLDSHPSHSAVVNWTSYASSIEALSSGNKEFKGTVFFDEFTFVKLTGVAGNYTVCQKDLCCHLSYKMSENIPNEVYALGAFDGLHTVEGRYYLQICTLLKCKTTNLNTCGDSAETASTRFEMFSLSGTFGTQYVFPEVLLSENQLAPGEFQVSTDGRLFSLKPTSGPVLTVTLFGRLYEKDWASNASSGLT
pIC50: −log10 of the molar value.
readout-type: pIC50

[[record]]
molecule = "CC(=O)N(C)[C@H]1CCN(C(=O)c2ccc(NCc3cc4ccccc4s3)nc2)C1"
observed_measurement = 8.69

[[record]]
molecule = "CN(C(=O)C1(C#N)CC1)[C@H]1CCN(C(=O)c2ccc(NCc3cnc4ccccn34)nc2)C1"
observed_measurement = 9.82

[[record]]
molecule = "CC(=O)N(C)[C@H]1CCN(C(=O)c2ccc(N[C@@H](C)c3nc4cc(Cl)ccc4[nH]3)nc2)C1"
observed_measurement = 9.22

[[record]]
molecule = "CC(=O)N(C)[C@H]1CCN(C(=O)c2ccc(NCc3cccc4[nH]ncc34)nc2)C1"
observed_measurement = 10.05

[[record]]
molecule = "CC1(C#N)CCN(C(=O)c2ccc(NCc3cnc4ccccn34)nc2)C1 (stereo not shown)"
observed_measurement = 9.39

[[record]]
molecule = "CC(=O)N(C)[C@H]1CCN(C(=O)c2ccc(N[C@H](C)c3cccc4c3cnn4C)nc2)C1"
observed_measurement = 8.84

[[record]]
molecule = "CC(=O)N(C)[C@H]1CCN(C(=O)c2ccc(NCc3cnc4ccccc4c3)nc2)C1"
observed_measurement = 9.68

